Biological target: Lysosomal protective protein (Homo sapiens, UniProt P10619)
Sequence (P10619 29-326 limits assumed): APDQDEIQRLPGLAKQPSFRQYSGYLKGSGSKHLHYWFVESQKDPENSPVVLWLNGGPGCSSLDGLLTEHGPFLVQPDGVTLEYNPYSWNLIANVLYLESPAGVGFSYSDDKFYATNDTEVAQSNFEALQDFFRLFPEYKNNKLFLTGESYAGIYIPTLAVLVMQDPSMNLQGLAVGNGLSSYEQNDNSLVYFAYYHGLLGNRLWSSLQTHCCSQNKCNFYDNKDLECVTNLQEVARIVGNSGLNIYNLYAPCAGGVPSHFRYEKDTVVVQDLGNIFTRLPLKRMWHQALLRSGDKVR
Sequence (P10619 327-480 limits assumed): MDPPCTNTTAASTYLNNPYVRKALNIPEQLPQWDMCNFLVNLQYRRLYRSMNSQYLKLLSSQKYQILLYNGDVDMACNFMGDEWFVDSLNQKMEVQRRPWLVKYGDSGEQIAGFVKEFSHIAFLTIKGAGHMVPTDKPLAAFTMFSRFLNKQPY
Assay: Inhibition of recombinant CatA using [14C]GS-7340 substrate
Listed compounds paired with reported IC50

SMILES NOTATION: CC(C)C[C@H](NC(=O)[C@H]1O[C@@H]1C(=O)O)C(=O)NCCCCN=C(N)N
CENSORING OPERATOR: >
IC50, nM: 300000
--
SMILES NOTATION: O=c1oc(Cl)c(Cl)c2ccccc12
CENSORING OPERATOR: =
IC50, nM: 600

====

Experiment: Inhibition of crude human PBMC extract prodrug hydrolase using [14C]GS-7340 substrate
pIC50: −log10 of the molar value.
Listed compounds paired with reported pIC50

COMPOUND: O=c1oc(Cl)c(Cl)c2ccccc12
CENSORING OPERATOR: =
pIC50: 5.30

COMPOUND: CC(C)C[C@H](NC(=O)[C@H]1O[C@@H]1C(=O)O)C(=O)NCCCCN=C(N)N [E-64]
CENSORING OPERATOR: <
pIC50: 3.52

====

Target: Liver carboxylesterase (Sus scrofa)
Sequence (Q29550 whole entry): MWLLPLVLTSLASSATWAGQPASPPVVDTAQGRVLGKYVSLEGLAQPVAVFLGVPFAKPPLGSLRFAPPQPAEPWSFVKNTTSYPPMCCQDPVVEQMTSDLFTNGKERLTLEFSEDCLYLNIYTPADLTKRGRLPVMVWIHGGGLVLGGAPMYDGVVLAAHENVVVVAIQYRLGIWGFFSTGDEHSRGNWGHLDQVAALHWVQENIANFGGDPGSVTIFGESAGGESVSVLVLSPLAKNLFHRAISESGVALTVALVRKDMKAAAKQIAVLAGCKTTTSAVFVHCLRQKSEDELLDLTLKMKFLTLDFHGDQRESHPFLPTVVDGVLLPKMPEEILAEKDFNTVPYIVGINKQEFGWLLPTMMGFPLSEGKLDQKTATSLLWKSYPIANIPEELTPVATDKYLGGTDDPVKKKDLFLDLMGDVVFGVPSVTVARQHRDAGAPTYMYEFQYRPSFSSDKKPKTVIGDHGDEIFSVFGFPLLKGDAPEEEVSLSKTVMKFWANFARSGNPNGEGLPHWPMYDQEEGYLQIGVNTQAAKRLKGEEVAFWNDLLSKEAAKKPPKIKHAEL
pIC50: −log10 of the molar value.
TEST READOUT: pIC50

SMILES NOTATION: O=c1oc(Cl)c(Cl)c2ccccc12
TEST READOUT: pIC50
REPORTED MEASUREMENT: < 3.60

====

Biological target: Neutrophil elastase (Homo sapiens, UniProt P08246)
Sequence (P08246 whole entry): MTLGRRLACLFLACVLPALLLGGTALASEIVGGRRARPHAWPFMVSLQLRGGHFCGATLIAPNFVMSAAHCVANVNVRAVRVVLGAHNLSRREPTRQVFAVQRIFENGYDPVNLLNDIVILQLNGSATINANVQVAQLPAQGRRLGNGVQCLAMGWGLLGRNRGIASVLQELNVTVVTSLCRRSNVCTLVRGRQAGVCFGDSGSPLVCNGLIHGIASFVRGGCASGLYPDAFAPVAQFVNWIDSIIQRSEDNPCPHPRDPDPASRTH
Assay: Inhibition of human leukocyte elastase using [14C]GS7340 substrate
TEST READOUT: IC50

COMPOUND: CC(C)C[C@H](NC(=O)[C@H]1O[C@@H]1C(=O)O)C(=O)NCCCCN=C(N)N [E-64]
REPORTED MEASUREMENT: > 300 µM
